Assay explanation: Relative bioavailability and food-effect crossover study, cohort 1 (bilayer tablet F2 vs F1 co-administered with F3)
Test context: human, plasma, oral, Cmax, plasma, mean; F1 Compound of Formula I (75 mg) + F3 F/TAF (200/25 mg) co-administered, fasted, Reference, N = 28, cohort 1
Experimental: Studies were carried out to assess the pharmacokinetic profiles of the formulations F1, F2, and F3 of Examples 1, 2, and 2A. […] The bioavailability was evaluated in healthy subjects. The following plasma pharmacokinetic parameters were calculated: Cmax, AUClast, and AUCinf. […]

# Compound structure string, Unit, Cmax
data = [
    ("O=C(NCc1c(F)cc(F)cc1F)c1cn2c(c(O)c1=O)C(=O)N1[C@H]3CC[C@H](C3)O[C@@H]1C2", "ng/mL", 5590),
]

* * *

Assay explanation: Relative bioavailability and food-effect crossover study, cohort 1 (bilayer tablet F2 vs F1 co-administered with F3)
Test context: human, in vivo, Cmax, plasma, mean; F2 Compound of Formula I/F/TAF (75/200/25 mg), high-fat meal, Test, N = 28
Property measured: Cmax (ng/mL)

# Compound, Property measured, Measured number
records = [
    ("CC(C)OC(=O)[C@H](C)N[P@](=O)(CO[C@H](C)Cn1cnc2c(N)ncnc21)Oc1ccccc1 [Tenofovir alafenamide]", "Cmax", 212),
]

* * *

Assay explanation: Relative bioavailability and food-effect crossover study, cohort 1 (bilayer tablet F2 vs F1 co-administered with F3)
Test context: human, in vivo, AUCinf, plasma, mean; F1 Compound of Formula I (75 mg) + F3 F/TAF (200/25 mg) co-administered, fasted, Reference, N = 28, cohort 1
Property measured: AUC(0-inf)

# Molecule, Property measured, Result
measured = [
    ("CC(C)OC(=O)[C@H](C)N[P@](=O)(CO[C@H](C)Cn1cnc2c(N)ncnc21)Oc1ccccc1 [Tenofovir alafenamide]", "AUC(0-inf)", "225 ng·h/mL"),
]

* * *

Assay explanation: Relative bioavailability and food-effect crossover study, cohort 1 (bilayer tablet F2 vs F1 co-administered with F3)
Test context: human, plasma, oral, AUClast, mean; F2 Compound of Formula I/F/TAF (75/200/25 mg), high-fat meal, Test, N = 28

# Compound structure string, Unit, AUC(0-t)
measured = [
    ("O=C(NCc1c(F)cc(F)cc1F)c1cn2c(c(O)c1=O)C(=O)N1[C@H]3CC[C@H](C3)O[C@@H]1C2", "µg·h/mL", 217),
]

* * *

Assay explanation: Relative bioavailability and food-effect crossover study, cohort 1 (bilayer tablet F2 vs F1 co-administered with F3)
Test context: human, in vivo, AUCinf, plasma, mean; bilayer tablet F2 Compound of Formula I/F/TAF (75/200/25 mg), single dose, fasted, N = 28
Experimental: Studies were carried out to assess the pharmacokinetic profiles of the formulations F1, F2, and F3 of Examples 1, 2, and 2A. […] The bioavailability was evaluated in healthy subjects. The following plasma pharmacokinetic parameters were calculated: Cmax, AUClast, and AUCinf. […]

# Compound, AUC(0-inf) / ng·h/mL
rows = [
    ("CC(C)OC(=O)[C@H](C)N[P@](=O)(CO[C@H](C)Cn1cnc2c(N)ncnc21)Oc1ccccc1 [Tenofovir alafenamide]", 207),
]

* * *

Assay explanation: Food effect on single dose Compound of Formula I 100 mg single agent tablet (8 subjects)
Type: in vivo, human
Test context: human, plasma, oral, 100 mg, mean; Compound of Formula I 100 mg single agent tablet, Fed (high-fat breakfast), n = 8
Property measured: AUC(0-inf) (µg·h/mL)

# Compound structure string, Property measured, Measured number
measured = [
    ("O=C(NCc1c(F)cc(F)cc1F)c1cn2c(c(O)c1=O)C(=O)N1[C@H]3CC[C@H](C3)O[C@@H]1C2", "AUC(0-inf)", 214),
]
